recorded_endpoint: melting point

# melting point of "O=C(Nc1ccn2cc(-c3cccs3)nc2c1)c1cc2cc(F)ccc2n1Cc1cccc(F)c1" = 259 to 260 °C

====

recorded_endpoint: melting point

{"columns": ["smiles_repr", "value_observed"],
 "data": [
  ["Cc1nc2cc(NC(=O)c3cc4cc(F)ccc4n3Cc3cccc(F)c3)ccn2c1-c1ccccc1", "305 to 307 °C"],
  ["CCc1cn2ccc(NC(=O)c3cc4cc(C(F)(F)F)cnc4n3Cc3cccc(F)c3)cc2n1", "264 to 265 °C"],
  ["CCOC(=O)c1cn2nc(NC(=O)c3cc4cc(F)ccc4n3Cc3cccc(F)c3)ccc2n1", "267 to 268 °C"]
]}

# melting point of "O=C(Nc1ccn2cc(CO)nc2c1)c1cc2cc(C(F)(F)F)cnc2n1Cc1cccc(F)c1" = 238 to 240 °C

# melting point of "O=C(Nc1ccc2nc(CO)cn2c1)c1cc2cc(F)ccc2n1Cc1cccc(F)c1" = 247 to 249 °C

# melting point of "Cc1nc2cc(NC(=O)c3cc4cc(C(F)(F)F)ccc4n3Cc3cccc(F)c3)ccn2c1C" = 280 to 281 °C

# melting point of "CC(C)(C)c1cn2cc(NC(=O)c3cc4cc(F)ccc4n3Cc3cccc(F)c3)ccc2n1" = 190 to 192 °C

# melting point of "CCOC(=O)c1cn2cc(NC(=O)c3cc4cc(F)ccc4n3Cc3cccc(F)c3)ccc2n1" = 242 to 245 °C

# melting point of "Cc1cn2ccc(NC(=O)c3cc4cc(F)ccc4n3Cc3cccc(F)c3)cc2n1" = 267 to 268 °C

# melting point of "Cc1cc2ncc(NC(=O)c3cc4cc(F)ccc4n3Cc3cccc(F)c3)cn2n1" = 267 to 268 °C

# melting point of "O=C(Nc1ccn2cc(CO)nc2c1)c1cc2cc(F)ccc2n1Cc1cccc(F)c1" = 244 to 245 °C

# melting point of "Cc1nc2cc(NC(=O)c3cc4cc(C(F)(F)F)cnc4n3Cc3cccc(F)c3)ccn2c1C" = 287 to 288 °C

# melting point of "CCc1cn2cc(NC(=O)c3cc4cc(F)ccc4n3Cc3cccc(F)c3)ccc2n1" = 278 to 279 °C

# melting point of "O=C(Nc1ccn2cc(CO)nc2c1)c1cc2cc(C(F)(F)F)ccc2n1Cc1cccc(F)c1" = 254 to 255 °C

# melting point of "O=C(Nc1ccc2nc(-c3cccs3)cn2c1)c1cc2cc(F)ccc2n1Cc1cccc(F)c1" = 316 to 318 °C

====

recorded_endpoint: melting point

Answered cases to consult:
{"columns": ["smiles_repr", "melting point"],
 "data": [
  ["CC(C)(C)c1cn2ccc(NC(=O)c3cc4cc(F)ccc4n3Cc3cccc(F)c3)cc2n1", "327 to 328 °C"],
  ["Cc1cn2cc(NC(=O)c3cc4cc(F)ccc4n3Cc3cccc(F)c3)ccc2n1", "200 to 203 °C"]
]}

Read the next record carefully.
# melting point of "COCc1cn2ccc(NC(=O)c3cc4cc(F)ccc4n3Cc3cccc(F)c3)cc2n1" = 215 to 216 °C
